- Measurement description: chemical genetic growth profiling, strain panel (AID 1159580);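 also: tested at 20 µM; growth read once vehicle control cultures reached saturation at 30 °C; lower values mean less growth of the strain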
- Test parameters: S. cerevisiae deletion strains, growth OD, locus YCL029C, strain bik1
Among all 5,500 compounds or so, about 2,000 (36%) were called active. Another 18% or so got no clear call; they are omitted. Rule as the data show it: active = normalized growth mostly below about 0.91 (no sharp cut-off); inconclusive = no clear call, values can overlap the other calls; inactive = mostly above about 0.92. The list shows a part of the results.
Outcome codes: YES for active, NO for inactive

Compound: CCCCCCCCCCCC(=O)OCC(COP(=O)(O)OCC(O)COP(=O)(O)OCC(COC(=O)CCCCCCCCCCC)OC(=O)CCCCCCCCCCC)OC(=O)CCCCCCCCCCC (stereo not given)
Cat: NO

Compound: COc1ccc2oc3ccccc3c(=O)c2c1
Cat: YES

Compound: Clc1ccc(COC(Cn2ccnc2)c2ccc(Cl)cc2Cl)cc1 (stereo not given)
Cat: YES

Compound: Clc1ccc(CSC(Cn2ccnc2)c2ccc(Cl)cc2Cl)cc1 (stereo not given)
Cat: YES

Compound: COc1cc(C)c2c(=O)cc(-c3ccccc3)oc2c1
Cat: NO
